Target: T1, full-length human KLB on HEK293/hKLB/SRE-luc cells (human, UniProt Q86Z14 1-1044)
T1 construct: amino acids 1-1044 of NP_783864.1
T1 sequence: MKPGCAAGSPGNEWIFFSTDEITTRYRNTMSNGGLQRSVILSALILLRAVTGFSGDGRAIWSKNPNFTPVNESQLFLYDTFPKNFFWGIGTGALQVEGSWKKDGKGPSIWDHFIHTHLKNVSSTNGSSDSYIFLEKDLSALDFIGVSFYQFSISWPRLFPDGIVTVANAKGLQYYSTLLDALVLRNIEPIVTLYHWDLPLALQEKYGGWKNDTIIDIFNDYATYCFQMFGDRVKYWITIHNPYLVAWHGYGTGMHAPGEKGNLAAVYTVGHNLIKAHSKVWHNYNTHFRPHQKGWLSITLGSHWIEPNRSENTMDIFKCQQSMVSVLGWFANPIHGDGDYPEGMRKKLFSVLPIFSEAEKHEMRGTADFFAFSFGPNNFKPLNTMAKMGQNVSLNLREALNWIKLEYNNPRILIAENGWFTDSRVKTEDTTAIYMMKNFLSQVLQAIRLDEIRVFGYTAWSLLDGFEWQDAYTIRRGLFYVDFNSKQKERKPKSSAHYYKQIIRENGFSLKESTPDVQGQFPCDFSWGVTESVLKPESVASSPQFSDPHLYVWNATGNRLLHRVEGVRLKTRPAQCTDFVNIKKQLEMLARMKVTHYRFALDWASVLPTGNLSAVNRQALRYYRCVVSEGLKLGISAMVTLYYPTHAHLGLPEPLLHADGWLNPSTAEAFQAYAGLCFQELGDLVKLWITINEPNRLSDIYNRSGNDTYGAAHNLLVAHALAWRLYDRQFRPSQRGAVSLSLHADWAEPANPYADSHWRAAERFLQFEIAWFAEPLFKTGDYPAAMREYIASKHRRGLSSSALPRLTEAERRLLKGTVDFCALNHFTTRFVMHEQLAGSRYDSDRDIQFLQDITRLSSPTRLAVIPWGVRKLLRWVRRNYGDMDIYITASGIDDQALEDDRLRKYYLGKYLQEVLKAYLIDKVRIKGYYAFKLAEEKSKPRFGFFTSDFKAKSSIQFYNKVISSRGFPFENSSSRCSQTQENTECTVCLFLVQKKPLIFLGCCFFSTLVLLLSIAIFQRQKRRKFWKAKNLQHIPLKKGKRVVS
Experiment: FACS on stable HEK293 cells
Recorded binding ratio to unstained cells by entry
Number in fold, nothing else.

[
  {
    "binder": "H4H8852P (antibody, V domains shown, human IgG4 Fc (H4H prefix)) VH: QVQLQESGPGLVKPSETLSLTCTVSGGSISSYYWSWIRQPPGKGLEWIGYIYSSGIIKYNPSLKSRVTISADTSKNQFSLKLSSVTAADTAVYYCARHGIFGVMEYFQRWGQGTLVTVSS VL: DIQMTQSPSSLSASIGDRVTITCQASQDIGNFLNWYQQKPGKAPTLLIYDASNMETGVPSRFSGSGSGTYFTFTISSLQPEDVATYYCQQYDNLPLTFGGGTKVEIK",
    "units.symbol": "fold",
    "experimental.result": 7
  },
  {
    "binder": "H4H8859P (antibody, V domains shown, human IgG4 Fc (H4H prefix)) VH: EVQLVESGGSVVRPGGSLRLSCAASGFTFDVYGMSWVRQAPGKGLEWVSGINWIGGSTGYADSVKGRFTISRDNAKNSLYLQMNSLRAEDTALYYCTREEDYWGQGTLVTVSS VL: DVVMTQSPLSLAVTLGQPASISCRSSQSLVYSDGNTYLNWFQQRPGQSPRRLFYKVSNRDSGVPDRFSGSGSGTDFTLKISRVEAEDVGIYYCMQGIKWPLTFGGGTKVEIK",
    "units.symbol": "fold",
    "experimental.result": 5
  },
  {
    "binder": "H2aM8109N (antibody, V domains shown, mouse IgG2 Fc (H2aM prefix)) VH: QVQVVESGGGVVQPGRSLRLSCAASGFTFSSYGLHWVRQAPGKGLEWVAVIWHDGSHKYYADSVKGRFTISRDNSKNTLYLQMNSLRAEDTAVYYCARDGIPVAEDYYFYGMDVWGQGTTVTVSS VL: DIQMTQSPSSLSASVGDRVTITCRASQGIRNDLGWYQQKPGKAPKRLIYAASSLQSGVPSRFSGSGSGTEFTLTISSLQPEDFAIYYCLQHNSLTFGGGTKVEIK",
    "units.symbol": "fold",
    "experimental.result": 21
  },
  {
    "binder": "H4H8871P (antibody, V domains shown, human IgG4 Fc (H4H prefix)) VH: QVQLQESGPGLVKPSETLSLTCTVSGASISSYYWSWIRQPPGKGLEWIGYIYSSGIIKYNPSLKSRVTISADTSKNQFSLKLSSVTAADTAVYYCARHGIFGVMEYFQRWGQGTLVTVSS VL: DIQMTQSPSSLSASIGDRVTITCQASQDIGNFLNWYHQKPGKAPTLLIYDASNMETGVPSRFRGSGSGTYFTFIISSLQPEDVATYYCQQYDNLPLTFGGGTKVEIK",
    "units.symbol": "fold",
    "experimental.result": 7
  }
]

Form: binder = H2aM8098N (antibody, V domains shown, mouse IgG2 Fc (H2aM prefix)) VH: QLQLQESGPGLVKPSETLSLTCTVSGGSISSSNYYWDWIRQTPEKGLEWIGSIHYSGTSYYNPSLKSRVTISVDTSKNQFSLKLRSVTAADAAVYYCARQTSVYWYFDIWGHGTLVTVST VL: EIVLTQSPGTLSLSPGEGATLSCRASQSVRNNYLAWYQQKPGQAPRLLIYGASSRAIGIPDRFSGSGSGTDFTLTISRLEPKDFVVYYCQQYGGSLFTFGPGTKVDIK ; binding ratio to unstained cells = 11
